Values compiled from the array DNA melting data of Ke et al. (doi:10.1101/2024.01.08.574731).

test_protocol: melting temperature; fluorescence melt of hairpins on a sequencing array, two-state fit, raised by 9.35 °C to match UV melts
settings: sodium 0.088 M
Quick reference: Tm of the listed items.
Only the number, expressed in °C, is required.

Recorded results for 2 sequences are shown here.
1) GGTGGCGAAAGCCTCACC ((((((....)))..)))	45.2
2) GCGCAGCGAAAGCTAGGC ((..(((....)))..))	39.7

Ask: Query (sequence): GTGGCCGCGAAAGCGCAC (((..(((....)))))) ; field requested: Tm
Reply: 48.4

Ask: Query (sequence): TACCCGAAAGGGTA (((((....))))) ; field requested: Tm
Reply: 66.1

Ask: Query (sequence): GTCGCTGGAAACAGCAAC ((.((((....)))).)) ; field requested: Tm
Reply: 41.7

Ask: Query (sequence): GAGGTCGCGAAAGCGCTC (((..(((....)))))) ; field requested: Tm
Reply: 35.1

Ask: Query (sequence): GCCAAGGGAAACCCTAGC ((.(.((....)).).)) ; field requested: Tm
Reply: 28.8

Ask: Query (sequence): GCGGCGTCCGC ((((...)))) ; field requested: Tm
Reply: 59.9

Ask: Query (sequence): GCGTCGTAACGC ((((....)))) ; field requested: Tm
Reply: 55.3

Ask: Query (sequence): GTGGAACGAAAGTTACAC (((.(((....))).))) ; field requested: Tm
Reply: 57

Ask: Query (sequence): GGGTGCGAAAGCATGCCC ((((((....)))..))) ; field requested: Tm
Reply: 49.6

Ask: Query (sequence): GACCAAGGAAACTTGGCC (.(((((....))))).) ; field requested: Tm
Reply: 41.7
